# Test system: PLK2
# Protocol conditions: concentration: 1 μM,replicates: in singlicate; n = 1;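 further: KINOMEscan kinase panel screen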
Test readout: %Inh (%)

>  <Compound>
CCN(CC)CCOc1ccc(Nc2ncc3cc(-c4c(Cl)cccc4Cl)c(=O)n(C)c3n2)cc1

>  <Unit>
%

>  <Readout value>
27

$$$$
>  <Compound>
CN(C)CCOc1ccc(-c2cc(-c3c[nH]nc3-c3ccccn3)ccn2)cc1

>  <Unit>
%

>  <Readout value>
21

$$$$
>  <Compound>
CN(C)CC(O)COc1ccc(Nc2nccc(-c3cnn4nc(N5CCOCC5)ccc34)n2)cc1 (centres unmarked)

>  <Unit>
%

>  <Readout value>
28

$$$$
>  <Compound>
Cl.Cl.NC[C@H](CC1CCCCC1)NC(=O)c1cc(Br)c(-c2ccnc3[nH]ccc23)s1

>  <Unit>
%

>  <Readout value>
0

$$$$
>  <Compound>
C=CC(=O)Nc1cc2c(Nc3ccc(F)c(Cl)c3)ncnc2cc1OCCCN1CCOCC1

>  <Unit>
%

>  <Readout value>
0

$$$$
>  <Compound>
CCn1c(-c2nonc2N)nc2c(C#CC(C)(C)O)nc(OCCN)cc21.Cl.Cl

>  <Unit>
%

>  <Readout value>
0

$$$$
>  <Compound>
O=C(NCCCN1CCOC1=O)c1cnc(NCc2cc(Cl)ccc2Cl)nc1NC1CCCC1

>  <Unit>
%

>  <Readout value>
0

$$$$
>  <Compound>
CC(C)N1C(=O)Cc2cc(Nc3ncc(C(F)(F)F)c(NCc4cccc(S(C)(=O)=O)c4)n3)ccc21

>  <Unit>
%

>  <Readout value>
61

$$$$

---

# Test system: IKK-alpha
# Construct: gene CHUK
# Protocol conditions: concentration: 1 μM,replicates: in singlicate; n = 1

>  <Smiles structure>
CCN(CC)CCOc1ccc(Nc2ncc3cc(-c4c(Cl)cccc4Cl)c(=O)n(C)c3n2)cc1

>  <Assay target>
IKK-alpha

>  <%Inh>
0%

$$$$
>  <Smiles structure>
O=C(NCCNc1ccnc(NCc2ccc(F)cc2)n1)c1cc2ccccc2s1

>  <Assay target>
IKK-alpha

>  <%Inh>
0%

$$$$
>  <Smiles structure>
C[C@@H](Oc1cc(-c2cnn(C3CCNCC3)c2)cnc1N)c1c(Cl)ccc(F)c1Cl

>  <Assay target>
IKK-alpha

>  <%Inh>
17%

$$$$
>  <Smiles structure>
COc1ccc(C[C@@H](CN)NC(=O)c2cc(Br)c(-c3ccnc4[nH]ccc34)s2)cc1.Cl.Cl

>  <Assay target>
IKK-alpha

>  <%Inh>
52%

$$$$
>  <Smiles structure>
C[C@@H]1CCN(C(=O)CC#N)C[C@@H]1N(C)c1ncnc2[nH]ccc12

>  <Assay target>
IKK-alpha

>  <%Inh>
0%

$$$$

---

# Test system: TIE2
# Construct: gene TEK
# Protocol conditions: concentration: 1 μM,replicates: in singlicate; n = 1

>  <Compound>
Cl.Oc1cc(-c2nc(-c3ccccc3)[nH]c2-c2ccncc2)ccc1Cl [SB-386023]

>  <Unit>
%

>  <%Inh>
6

$$$$
>  <Compound>
COc1ccc(C[C@@H](CN)NC(=O)c2cc(Br)c(-c3ccnc4[nH]ccc34)s2)cc1.Cl.Cl [GSK1389063]

>  <Unit>
%

>  <%Inh>
39

$$$$
>  <Compound>
CC(C)Nc1cc(-c2ccc3c(N)n[nH]c3c2)nc(N)n1 [GSK2221681]

>  <Unit>
%

>  <%Inh>
0

$$$$
>  <Compound>
O=C(NCCCN1CCOC1=O)c1cnc(NCc2cc(Cl)ccc2Cl)nc1NC1CCCC1

>  <Unit>
%

>  <%Inh>
0

$$$$
>  <Compound>
C=CC(=O)Nc1cc2c(Nc3ccc(F)c(Cl)c3)ncnc2cc1OCCCN1CCOCC1 [GW781483]

>  <Unit>
%

>  <%Inh>
31

$$$$
>  <Compound>
O=C(NCCNc1ccnc(NCc2ccc(F)cc2)n1)c1cc2ccccc2s1 [GSK1379944]

>  <Unit>
%

>  <%Inh>
0

$$$$
>  <Compound>
CCN(CC)CCCCNc1ncc2cc(-c3c(Cl)cccc3Cl)c(NC(=O)NC(C)(C)C)nc2n1

>  <Unit>
%

>  <%Inh>
94.6

$$$$
>  <Compound>
CCn1c(-c2nonc2N)nc2c(C#CC(C)(C)O)nc(OCCN)cc21.Cl.Cl [GSK902056]

>  <Unit>
%

>  <%Inh>
0

$$$$
>  <Compound>
CN(C)CCOc1ccc(-c2cc(-c3c[nH]nc3-c3ccccn3)ccn2)cc1 [GW835314]

>  <Unit>
%

>  <%Inh>
14

$$$$
>  <Compound>
C[C@@H]1CCN(C(=O)CC#N)C[C@@H]1N(C)c1ncnc2[nH]ccc12

>  <Unit>
%

>  <%Inh>
4

$$$$
>  <Compound>
Cc1n[nH]c2ccc(-c3cc(OC[C@@H](N)Cc4ccccc4)cnc3-c3ccoc3)cc12.O=C(O)C(F)(F)F.O=C(O)C(F)(F)F [GSK507358]

>  <Unit>
%

>  <%Inh>
0

$$$$
>  <Compound>
CCN(CC)CCOc1ccc(Nc2ncc3cc(-c4c(Cl)cccc4Cl)c(=O)n(C)c3n2)cc1 [SB-601273]

>  <Unit>
%

>  <%Inh>
98.8

$$$$
>  <Compound>
C[C@H]1Oc2cc(cnc2N)-c2c(nn(C)c2C#N)CN(C)C(=O)c2ccc(F)cc21

>  <Unit>
%

>  <%Inh>
18

$$$$
>  <Compound>
CNC(=O)c1ccccc1Sc1ccc2c(/C=C/c3ccccn3)n[nH]c2c1

>  <Unit>
%

>  <%Inh>
53

$$$$
>  <Compound>
Cl.Cl.Nc1nc(-c2ccc3c(N)n[nH]c3c2)cc(N2CCCC(NC(=O)c3ccccc3)C2)n1 (stereo not shown) [GSK2286775]

>  <Unit>
%

>  <%Inh>
0

$$$$
>  <Compound>
Cc1cc2cn[nH]c2cc1-c1cccc2c(N)c(C(N)=O)nnc12

>  <Unit>
%

>  <%Inh>
31

$$$$

Sourced from paper PMC5540273
